Hey, just so you know, these numbers are from the supplement of paper PMC10065799.

Would you kindly list SH2 binding enrichment for each of these sequences?
Biological target: Grb2 SH2 (UniProt P62993)
Sequence (P62993 whole entry, looked up): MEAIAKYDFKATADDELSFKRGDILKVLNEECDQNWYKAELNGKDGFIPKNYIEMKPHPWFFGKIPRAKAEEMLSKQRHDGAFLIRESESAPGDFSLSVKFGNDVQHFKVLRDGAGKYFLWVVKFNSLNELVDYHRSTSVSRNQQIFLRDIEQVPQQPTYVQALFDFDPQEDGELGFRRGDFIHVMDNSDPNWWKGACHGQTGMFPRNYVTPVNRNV
Test: SH2 binding enrichment of the phosphorylated peptide, bacterial display (enrichment ratio); higher = better substrate or ligand; peptides without Tyr show the background
Answers are plain numbers.

Recorded SH2 binding enrichment, per entry:
DLNATYRTIQG [U2SURP_Y634]	0.876
VRTGIYHGGEP [PIK3CA_Y361]	0.888
RETSLYKACER [ASB2_Y162_P160S]	1.14
RKPDIYERLAS [MCM4_Y459]	0.734
PLGVLYKVKVY [PTS_Y128_V124L]	0.828

State the recorded SH2 binding enrichment for every item in the following list.
1. VDSGVYAVPPP [BCAR1_Y410]
2. RHTRSYDFTEG [FGF7_Y56_M59T_YF]

Output:
0.863
0.88

----------
Would you kindly list phosphorylation enrichment for each of these sequences?
System: AncSZ
Experiment: phosphorylation enrichment, bacterial display (enrichment ratio); higher = better substrate or ligand; peptides without Tyr show the background
One number for each entry.

SPFAVYLFFTF [RPGRIP1_Y826_R827L_YF]	0.99
HKANEYYPVVI [ADAMTS18_Y764_L769I]	2.1
FDDDDYDMDFV [BLM_Y296_T298M]	1.29

State the recorded phosphorylation enrichment for every item in the following list.
1. RLPSGYGLAYR [DLK1_Y262]
2. EQLGEYKFQNA [ALB_Y425]

Output:
1. 0.627
2. 0.824

Input: // phosphorylation enrichment lookup, key: YQLENCCNGGG [INS_Y108_Y108C]
Output: 0.829

----------
Target: Grb2 SH2 (UniProt P62993)
Assay: SH2 binding enrichment of the phosphorylated peptide, bacterial display (enrichment ratio); higher = better substrate or ligand; peptides without Tyr show the background
measured attribute: SH2 binding enrichment
Answers are plain numbers.

LVTRSYLLGNS [LMNA_Y646]	0.836

State the recorded SH2 binding enrichment for every item in the following list.
1. FGAHNHHPLPV [OAT_Y55_Y55H_YF]
2. SRIWVYNHYRW [BRCA2_Y2621]
3. SLALFYRNVFH [RBL1_Y792_K794N_YF]

Output:
1.03
1.14
0.892

----------
Molecular target: FGFR3 (UniProt P22607)
Sequence (P22607 whole entry, looked up): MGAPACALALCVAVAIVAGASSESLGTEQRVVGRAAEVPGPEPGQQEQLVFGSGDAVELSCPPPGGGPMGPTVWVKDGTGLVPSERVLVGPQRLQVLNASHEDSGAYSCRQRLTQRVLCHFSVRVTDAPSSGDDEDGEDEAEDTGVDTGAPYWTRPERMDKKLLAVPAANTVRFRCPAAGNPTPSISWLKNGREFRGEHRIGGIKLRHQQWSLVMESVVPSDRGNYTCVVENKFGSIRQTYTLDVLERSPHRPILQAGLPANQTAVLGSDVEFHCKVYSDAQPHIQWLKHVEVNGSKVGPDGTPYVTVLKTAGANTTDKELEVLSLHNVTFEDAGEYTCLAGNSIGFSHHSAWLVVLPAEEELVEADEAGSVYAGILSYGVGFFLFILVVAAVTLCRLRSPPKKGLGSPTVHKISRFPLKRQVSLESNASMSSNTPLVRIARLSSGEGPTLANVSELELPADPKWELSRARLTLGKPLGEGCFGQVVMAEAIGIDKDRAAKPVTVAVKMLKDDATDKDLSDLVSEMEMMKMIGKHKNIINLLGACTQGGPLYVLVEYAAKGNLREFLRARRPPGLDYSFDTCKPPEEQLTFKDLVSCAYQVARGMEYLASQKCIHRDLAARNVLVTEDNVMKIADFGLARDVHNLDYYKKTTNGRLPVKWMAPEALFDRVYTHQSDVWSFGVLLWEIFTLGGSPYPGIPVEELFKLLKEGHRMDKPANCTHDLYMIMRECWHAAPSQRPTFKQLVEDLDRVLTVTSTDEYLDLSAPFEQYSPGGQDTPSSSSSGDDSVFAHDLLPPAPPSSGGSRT
Assay: phosphorylation enrichment, bacterial display (enrichment ratio); higher = better substrate or ligand; peptides without Tyr show the background
Would you kindly list phosphorylation enrichment for each of these sequences?

RTLIRYANLSN [BEST1_Y131_G135S]	0.757
SIDLGYHKDLQ [NF1_Y1169_G1166D]	0.485

State the recorded phosphorylation enrichment for every item in the following list.
1. QKDTFYGLRSL [IGSF10_Y126]
2. FETNVYVDKNL [PTCHD3_Y688_K685T]
3. FSLIHYAGIVD [MYH7_Y582]

Output:
0.562
0.623
0.714

State the recorded phosphorylation enrichment for every item in the following list.
1. NAGAFYVLSTL [FLVCR2_Y325_A326V]
2. AVLQPYIFVAT [CFTR_Y1014]
3. DFLEKYFKFGC [NNMT_Y24_S29C_YF]
4. LKKKQYTSIHH [APP_Y728]

Output:
1: 0.699; 2: 1.41; 3: 0.73; 4: 0.903

----------
Would you kindly list phosphorylation enrichment for each of these sequences?
System: AncSZ
Experiment: phosphorylation enrichment, bacterial display (enrichment ratio); higher = better substrate or ligand; peptides without Tyr show the background
Answers are plain numbers.

IWDLKYTIENP [SND1_Y178_R174W]	1.01
HESEIYCKVCY [CSRP3_Y57]	1.41

State the recorded phosphorylation enrichment for every item in the following list.
1. DVLVEYQGEGR [GNS_Y416]
2. FMKEPYIQSRF [HIPK4_Y175_V171M_YF]
3. NPQKSYFILLF [WAS_Y83_R86L_YF]
4. LKDEDYLKDIV [HAUS3_Y582]
5. MYQVQYNSSVD [LRFN1_Y458]
6. VLTSKYPGGGG [HBA1_Y141_R142P]

Output:
[0.945, 0.54, 0.836, 2.21, 1.05, 0.349]

State the recorded phosphorylation enrichment for every item in the following list.
1. NAGAFYALSTL [FLVCR2_Y325]
2. ERLLDYTRTVQ [INPP5E_Y439]

Output:
1. 0.784
2. 0.945

State the recorded phosphorylation enrichment for every item in the following list.
1. CTTTHYNYMCN [TP53_Y234_I232T]
2. ERFSYYGMKAV [SLC15A2_Y61]
3. RPFSPYIIRGM [LRP5_Y1531_R1529S_YF]
4. FADIAYIFRHG [PAH_Y166_N167I_YF]
5. IFHENYNAGTF [CFI_Y421_YF]
6. YRVAGYETQGG [TIA1_Y383]

Output:
1: 0.708; 2: 0.993; 3: 1.29; 4: 0.908; 5: 0.612; 6: 0.436

State the recorded phosphorylation enrichment for every item in the following list.
1. AASTDYYKRGD [PDHA1_Y242]
2. GIMEEYQLPYY [BMPR1A_Y453_V450M]
3. SLDLSYFPTSS [EMD_Y181_YF]
4. NQILPYIEELV [PPP2R1B_Y341_K343E]

Output:
[0.83, 5.83, 0.879, 1.37]

----------
Test system: c-Abl (mouse)
Experiment: phosphorylation enrichment, bacterial display (enrichment ratio); higher = better substrate or ligand; peptides without Tyr show the background
Would you kindly list phosphorylation enrichment for each of these sequences?

EEAAGYAQESQ [CAMKV_Y491]	0.935
CNPLRYPVLMS [OR2T1_Y182]	0.896
LLVVLCKFRCF [PSEN1_Y154_Y154C_YF]	1.23

State the recorded phosphorylation enrichment for every item in the following list.
1. CSGNCYLDIRP [FBN1_Y1535_R1530C]
2. YQQLFYLLQIN [IQGAP2_Y890_T894I]
3. GMRHGYGVRQS [JPH2_Y141]
4. HAVYIYDICHV [TWNK_Y508_V507I]

Output:
1. 0.509
2. 1.3
3. 0.668
4. 4.12

State the recorded phosphorylation enrichment for every item in the following list.
1. INQGPYENRSV [ATP6V1B1_Y462]
2. QEALEYFMKQM [PIK3CA_Y1038]

Output:
[0.475, 1.19]

----------
Molecular target: EPHB2 (UniProt P29323)
Sequence (P29323 whole entry, looked up): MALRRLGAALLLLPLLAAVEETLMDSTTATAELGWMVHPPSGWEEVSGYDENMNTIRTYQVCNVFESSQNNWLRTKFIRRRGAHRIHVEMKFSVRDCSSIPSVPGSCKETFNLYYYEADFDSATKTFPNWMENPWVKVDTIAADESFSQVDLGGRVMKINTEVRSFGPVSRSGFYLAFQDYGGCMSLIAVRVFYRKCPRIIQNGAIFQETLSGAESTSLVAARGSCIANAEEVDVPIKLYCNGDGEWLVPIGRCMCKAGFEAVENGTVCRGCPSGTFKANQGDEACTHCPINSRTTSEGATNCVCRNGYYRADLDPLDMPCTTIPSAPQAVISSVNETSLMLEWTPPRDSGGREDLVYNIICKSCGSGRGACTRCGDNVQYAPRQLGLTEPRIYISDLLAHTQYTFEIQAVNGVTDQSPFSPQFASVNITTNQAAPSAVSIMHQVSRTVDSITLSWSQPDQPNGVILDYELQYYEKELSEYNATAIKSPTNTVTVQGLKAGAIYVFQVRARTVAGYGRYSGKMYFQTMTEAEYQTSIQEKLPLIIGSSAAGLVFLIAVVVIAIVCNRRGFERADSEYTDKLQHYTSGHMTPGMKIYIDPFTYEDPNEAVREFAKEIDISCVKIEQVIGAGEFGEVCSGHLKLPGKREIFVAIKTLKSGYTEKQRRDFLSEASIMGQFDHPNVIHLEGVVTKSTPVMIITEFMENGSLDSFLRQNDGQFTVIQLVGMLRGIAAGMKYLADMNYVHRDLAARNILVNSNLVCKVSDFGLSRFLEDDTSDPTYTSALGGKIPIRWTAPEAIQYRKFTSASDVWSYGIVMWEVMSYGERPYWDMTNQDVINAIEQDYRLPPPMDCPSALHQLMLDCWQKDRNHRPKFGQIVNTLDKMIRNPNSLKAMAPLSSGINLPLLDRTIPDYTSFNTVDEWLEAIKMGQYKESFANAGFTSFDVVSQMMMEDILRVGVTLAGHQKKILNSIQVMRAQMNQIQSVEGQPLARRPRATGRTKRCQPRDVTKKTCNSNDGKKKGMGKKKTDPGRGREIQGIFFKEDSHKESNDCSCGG
Assay: phosphorylation enrichment, bacterial display (enrichment ratio); higher = better substrate or ligand; peptides without Tyr show the background
Would you kindly list phosphorylation enrichment for each of these sequences?

RDLTDYLMKIL [ACTA1_Y190]	0.529
GDGRFYMKEAI [PGM1_Y66]	0.613
PLLTDYSPQLQ [OTC_Y345_S340P]	1.17
KVGNGYISAAE [CALM2_Y100_D96V]	0.468
EVKEAYMGSVL [ACAT1_Y90_N93S]	0.532
RHTRSYDFTEG [FGF7_Y56_M59T_YF]	0.492

State the recorded phosphorylation enrichment for every item in the following list.
1. SVLVPYEPPEV [TP53_Y220_V217L]
2. TTKGSYSLSVR [HCK_Y180]
3. RARPPYTVAAD [ANKZF1_Y572]
4. RWGQKHMTAVV [CYBA_Y72_Y72H]

Output:
1. 0.757
2. 0.43
3. 0.378
4. 0.559

Input: // phosphorylation enrichment lookup, key: PVQAAYPKVVA [HBB_Y131_Q132P]
Output: 0.542

----------
Would you kindly list phosphorylation enrichment for each of these sequences?
Target: FGFR1 (UniProt P11362)
Sequence (P11362 whole entry, looked up): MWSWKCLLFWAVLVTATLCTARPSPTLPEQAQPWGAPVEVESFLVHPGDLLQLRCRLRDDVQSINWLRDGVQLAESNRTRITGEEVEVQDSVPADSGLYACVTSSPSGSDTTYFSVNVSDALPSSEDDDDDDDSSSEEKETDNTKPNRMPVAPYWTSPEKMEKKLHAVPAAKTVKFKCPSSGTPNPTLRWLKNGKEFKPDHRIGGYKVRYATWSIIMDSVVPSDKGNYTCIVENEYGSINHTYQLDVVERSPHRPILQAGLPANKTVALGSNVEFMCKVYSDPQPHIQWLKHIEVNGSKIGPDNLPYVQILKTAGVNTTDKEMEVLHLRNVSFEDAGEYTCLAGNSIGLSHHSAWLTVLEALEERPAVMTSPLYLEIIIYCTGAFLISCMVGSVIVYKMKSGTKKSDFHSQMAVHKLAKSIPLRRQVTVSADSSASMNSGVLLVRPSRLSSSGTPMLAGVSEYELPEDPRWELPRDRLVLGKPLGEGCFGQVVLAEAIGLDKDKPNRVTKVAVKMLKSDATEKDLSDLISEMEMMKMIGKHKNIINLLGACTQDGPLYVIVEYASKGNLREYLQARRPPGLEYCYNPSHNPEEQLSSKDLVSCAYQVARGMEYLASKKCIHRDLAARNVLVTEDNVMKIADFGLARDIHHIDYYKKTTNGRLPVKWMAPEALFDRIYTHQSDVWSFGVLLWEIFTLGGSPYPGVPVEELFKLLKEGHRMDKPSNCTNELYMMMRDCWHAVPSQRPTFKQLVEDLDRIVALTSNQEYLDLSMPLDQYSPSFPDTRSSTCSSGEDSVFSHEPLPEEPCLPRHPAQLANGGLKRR
Assay: phosphorylation enrichment, bacterial display (enrichment ratio); higher = better substrate or ligand; peptides without Tyr show the background
Give bare numbers.

YDDGKYVYVVT [RPS6KA3_Y488]	1.63
CEAIEYLESKQ [BTK_Y511_M509I]	0.574
VHNLDYFKKTT [FGFR3_Y647_YF]	0.437
VPLLEYYWDIF [CDAN1_Y712_R714W]	7.97
PGPPGYCDSSQ [COL12A1_Y3043]	0.461

Now for a further sequence.
Input: Any idea what phosphorylation enrichment came out for NFRPGYNNFFN [USH2A_Y467_YF] on FGFR1 (UniProt P11362)?
Output: 0.519

----------
Target: MERTK (UniProt Q12866)
Sequence (Q12866 whole entry, looked up): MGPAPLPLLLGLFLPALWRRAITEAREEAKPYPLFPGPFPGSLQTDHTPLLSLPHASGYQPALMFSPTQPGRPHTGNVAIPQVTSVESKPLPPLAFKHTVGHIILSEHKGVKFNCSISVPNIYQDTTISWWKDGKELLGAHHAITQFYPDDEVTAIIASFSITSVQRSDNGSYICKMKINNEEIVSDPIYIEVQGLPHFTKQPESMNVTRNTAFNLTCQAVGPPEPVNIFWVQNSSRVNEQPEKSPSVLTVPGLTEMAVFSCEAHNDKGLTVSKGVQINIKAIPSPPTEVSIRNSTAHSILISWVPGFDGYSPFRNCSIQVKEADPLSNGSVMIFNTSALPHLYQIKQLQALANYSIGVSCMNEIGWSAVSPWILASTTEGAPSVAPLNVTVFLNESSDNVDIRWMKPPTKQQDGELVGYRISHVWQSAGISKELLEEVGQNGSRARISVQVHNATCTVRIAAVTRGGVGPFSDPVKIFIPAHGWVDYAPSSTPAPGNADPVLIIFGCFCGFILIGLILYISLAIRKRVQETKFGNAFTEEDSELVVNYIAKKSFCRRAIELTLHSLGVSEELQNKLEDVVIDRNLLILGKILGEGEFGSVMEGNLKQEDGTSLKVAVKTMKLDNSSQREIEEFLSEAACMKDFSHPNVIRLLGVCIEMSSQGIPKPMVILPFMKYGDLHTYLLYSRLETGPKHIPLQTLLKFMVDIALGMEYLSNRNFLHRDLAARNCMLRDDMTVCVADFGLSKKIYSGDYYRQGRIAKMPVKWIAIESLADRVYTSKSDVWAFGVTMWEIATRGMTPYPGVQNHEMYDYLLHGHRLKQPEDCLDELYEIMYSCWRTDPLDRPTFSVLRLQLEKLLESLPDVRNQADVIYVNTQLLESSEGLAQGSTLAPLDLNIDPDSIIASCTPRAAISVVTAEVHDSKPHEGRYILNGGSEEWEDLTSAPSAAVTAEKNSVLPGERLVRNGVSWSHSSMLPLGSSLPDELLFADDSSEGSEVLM
Assay: phosphorylation enrichment, bacterial display (enrichment ratio); higher = better substrate or ligand; peptides without Tyr show the background
measured attribute: phosphorylation enrichment
Answers are plain numbers.

WEPFGFAVTRC [PTPRT_Y412_Y412F]	0.399

State the recorded phosphorylation enrichment for every item in the following list.
1. YETSHYLASPD [CTNND2_Y1217_P1218L]
2. EFLQKYKGFKI [SYNE1_Y6953_YF]
3. LPVHFYGHVEH [PYGM_Y204]
4. LLLLFYVVRFC [MPZ_Y177_YF]
5. FEDALYTVLHR [UNC13D_Y61_YF]

Output:
1. 0.784
2. 0.395
3. 1.07
4. 0.805
5. 9.68

Input: Any idea what phosphorylation enrichment came out for IYHLSYLHNCE [PDE6B_Y227] on MERTK (UniProt Q12866)?
Output: 3.92
